Sourced from PubChem BioAssay (NCI)

Measured growth by item
Test system: U251 CNS
Assay: NCI-60 one-dose screen, 48 h (100 = growth as untreated, 0 = no growth, -100 = all killed)
Settings: 10 µM unless noted
About 83,000 compounds went through this panel and 20% of them were active in at least one assay; those are over-represented in the sample as a whole. Activity calls are given as the source filed them. How the source made its calls: active means growth percent below 10; inactive means the rest.
measurement.kind: growth

compound: C=C(C)[C@@H]1CC[C@]2(C(=O)N3CCN(C)CC3)CC[C@]3(C)[C@H](CC[C@@H]4[C@@]5(C)CC[C@H](OCCC#N)C(C)(C)[C@@H]5CC[C@]43C)[C@@H]12
assay.value: 43.9% (inactive)
//
compound: COC(=O)CNC(=O)[C@]12CCC(C)(C)C[C@H]1C1=CC[C@@H]3[C@@]4(C)Cc5c([nH]c6ccccc56)C(C)(C)[C@@H]4CC[C@@]3(C)[C@]1(C)CC2
assay.value: 82.3% (inactive)
//
compound: CC(=O)N1N=C(c2ccc(-n3ccc(C(F)(F)F)n3)c(F)c2)CC1c1ccc[nH]1 (stereo unspecified)
assay.value: 99.3% (inactive)
//
compound: O=S(=O)(NCCCNc1nccc(-c2c(-c3cccc(F)c3)nc3sccn23)n1)c1cccc(F)c1
assay.value: 70% (inactive)
//
compound: Nc1ccccc1NC(=O)c1ccc(-n2nc(-c3ccccc3)c3ccccc32)cc1
assay.value: -85.6% (active)
//
compound: Cn1cc(CC2CC(=O)N(c3ccccc3)C2=O)sc1=NC(=O)c1ccccc1 (stereo unspecified)
assay.value: 102% (inactive)

----------
System: COLO 205 colon
Test: NCI-60 one-dose screen, 48 h
Conditions: 10 µM unless noted
About 83,000 compounds went through this panel and 20% of them were active in at least one assay; those are over-represented in the sample as a whole. Active and inactive are the calls of the source. How the source made its calls: active means growth percent below 10; inactive means the rest.
Outcomes: label 1 for active, label 0 for inactive

compound: Cc1nn(-c2ccccc2)c(Oc2c(Cl)cccc2Cl)c1/C=N/N=c1\sc2ccccc2n1C
label: label 0
//
compound: CNCCOc1nc2c3cnccc3cc(-c3cc(OC)c(OC)c(OC)c3)c2c2ccncc12
label: label 1
//
compound: CCOC(=O)CSc1nc2ccccc2c(=O)n1Cc1ccc(S(N)(=O)=O)cc1
label: label 0
//
compound: C=C1C(=O)O[C@H]2[C@H]1CC/C(COC(=O)NCc1c[nH]c3ccc(Br)cc13)=C\CC[C@@]1(C)O[C@@H]21
label: label 1
//
compound: C=C1C(=O)O[C@H]2[C@H]1CC/C(COC(=O)NCCc1c[nH]c3ccc(OC)cc13)=C\CC[C@@]1(C)O[C@@H]21
label: label 1
//
compound: COc1ccc(/C=C2\Oc3cc(OCCCN4CCCCC4)ccc3C2=O)cc1OC
label: label 0
//
compound: CC(=O)Nc1ccc(-c2ccc3c(c2)NC(=O)/C3=C\c2ccc[nH]2)cc1
label: label 0
//
compound: NC(=NCc1ccccc1)C(N=Nc1ccccc1)C(=O)NCc1ccccc1 (stereo not given)
label: label 0
//
compound: Cc1nc2sccn2c1-c1cn2ccsc2n1
label: label 0
//
compound: COc1ccc(C(=O)c2cc(C)c(OC)c(C)c2)c(OC)c1NC(C)=O
label: label 1

----------
Tested on: OVCAR-4 ovarian
Experiment: NCI-60 one-dose screen, 48 h (100 = growth as untreated, 0 = no growth, -100 = all killed)
Conditions: 10 µM unless noted
This is part of a sample that, as a whole, favours compounds with a hit. Of some 83,000 tested, about 20% had one in any assay. Activity calls are given as the source filed them. The calls were made as follows: active = growth percent below 10; inactive = the rest.

molecule: Cc1ncc(C(=O)Nc2ccc(CN3CCN(C)CC3)c(C(F)(F)F)c2)cc1C#Cc1cnc(N)cc1C#N
growth: 30.2% (inactive)
//
molecule: COc1cc(C2C3=C(COC3=O)N(CCO)c3cc4c(cc32)OCO4)cc(OC)c1OC (stereo unspecified)
growth: 28.5% (inactive)
//
molecule: COc1cc(CC(=O)c2ccc(O)c(OC)c2)ccc1O
growth: 103% (inactive)
//
molecule: Cc1cc(C(=O)/C=C/c2ccc[nH]2)ccc1-n1ccc(C(F)(F)F)n1
growth: 74.7% (inactive)
//
molecule: CCOC(=O)[C@@H]1CCCN(S(=O)(=O)c2ccc(S(=O)(=O)N(CC)CC)c(F)c2)C1
growth: 75.5% (inactive)
//
molecule: N#Cc1c(-c2ccccc2)nc2c(c(-c3ccccc3)nn2-c2ccccc2)c1-c1ccc(O)cc1
growth: 72.2% (inactive)
//
molecule: CC(Sc1nc2ccccc2c(=O)n1CCc1ccc(S(N)(=O)=O)cc1)C(=O)Nc1ccc(Cl)cc1 (stereo unspecified)
growth: 93.2% (inactive)
//
molecule: COc1c(Cl)c2c(c(OC)c1OC)-c1ccc(SC)c(=O)cc1[C@@H](NC(=O)OCC(F)(F)F)CC2
growth: 39.6% (inactive)
//
molecule: COc1cccc(/C=N/NC(=O)c2cnn3c2NC(c2ccccc2)C3)c1Oc1ccccc1 (stereo unspecified)
growth: 98.9% (inactive)
//
molecule: COC(=O)/C=C1\S/C(=N\NC(=O)c2cc3ccc2/C=C\c2ccc(cc2)/C=C\3)N(Cc2ccccc2)C1=O
growth: 44.6% (inactive)
//
molecule: CCCCCC(=O)Oc1ccc(/C(=C(\C)c2ccccc2)c2ccc(OCCN3CCCCC3)cc2)cc1
growth: 82.9% (inactive)

----------
System: HOP-62 NSCLC
Assay: NCI-60 one-dose screen, 48 h
Details: 10 µM unless noted
The panel holds about 83,000 compounds, 20% with a hit somewhere; the sample as a whole holds those more often. Calls of active or inactive are those of the source. How the source made its calls: active means growth percent below 10; inactive means the rest.
Outcomes: active, inactive

given.smiles: O=C(CCN1CCCC1)Nc1ccc2c(Nc3ccc(Br)cc3)c3ccccc3nc2c1
experimental.target: HOP-62 NSCLC
label: active
--
given.smiles: C#CCNC(=O)[C@]1(C)CC[C@]2(C)CC[C@@H]3C(=CC[C@H]4[C@@]3(C)CC[C@H]3C(C)(C)C(=O)CC[C@]43C)[C@@H]2C1
experimental.target: HOP-62 NSCLC
label: inactive
--
given.smiles: CCOC(=O)CCN(CC(C)C)C(=S)Nc1ccccc1
experimental.target: HOP-62 NSCLC
label: inactive
--
given.smiles: O=C(/C=C(/C=C/c1coc2ccccc12)OB(F)F)/C=C/c1coc2ccccc12
experimental.target: HOP-62 NSCLC
label: inactive

----------
Tested on: EKVX NSCLC
Experiment: NCI-60 one-dose screen, 48 h (100 = growth as untreated, 0 = no growth, -100 = all killed)
Settings: 10 µM unless noted
This is part of a sample that, as a whole, favours compounds with a hit. Of some 83,000 tested, about 20% had one in any assay.

compound: Cc1cc(C(=O)/C=C/c2ccc[nH]2)ccc1-n1ccc(C(F)(F)F)n1
growth (%): 87.4
//
compound: C/C(=N\NC(=O)CSc1nc2ccccc2c(=O)n1Cc1ccc(S(N)(=O)=O)cc1)c1ccc(F)cc1
growth (%): 90.9
//
compound: N#C/C(=C\c1cccc(C#N)c1)c1ccccc1
growth (%): 90.7
//
compound: CCN1CCN(CCNc2nccc(-c3c(-c4cccc(OC)c4)nc4occn34)n2)S1(=O)=O
growth (%): 90.9
//
compound: Cn1cc(-c2nc(-c3c[nH]c4c(Cl)nccc34)cs2)c2cc(Br)ccc21
growth (%): 74.1
//
compound: CCN1C(=O)/C(=C/C(=O)OC)S/C1=N\NC(=O)c1cc2ccc1/C=C\c1ccc(cc1)/C=C\2
growth (%): 93.6
//
compound: CCOC(=O)c1cc(C(=O)c2ccc(OC)c(OC)c2)n2c1ccc1ccccc12
growth (%): 76.1
//
compound: COc1ccc(-c2cnc3c(-c4cccc5ncccc45)cnn3c2)cc1
growth (%): 80
//
compound: COc1c(Cl)c2c(c(OC)c1OC)-c1ccc(SC)c(=O)cc1[C@@H](NC(=O)OCC(F)(F)F)CC2
growth (%): 40
//
compound: c1ccc2c(-c3nccs3)c[nH]c2c1
growth (%): 88.6
//
compound: Cn1ccc2c1CC1CN(Cc3ccco3)C(=O)C1C2C(=O)O (stereo not given)
growth (%): 91.1
//
compound: COc1ccc(-c2[nH][nH]c(=O)c2-c2nc3ccccc3s2)cc1
growth (%): 99.9
//
compound: O=C(CNCCN1CCOCC1)N1c2cccc3cccc(c23)N(C(=O)CNCCN2CCOCC2)C1c1cn(-c2ccccc2)nc1-c1cccc([N+](=O)[O-])c1
growth (%): 84.6
//
compound: CCOC(=O)Oc1c(OC)cc(C(=O)c2ccc(OC)c(O)c2OC)cc1OC
growth (%): 58.9
//
compound: O=C(/C=C/c1c(-c2ccc(Cl)cc2)nn(-c2ccccc2)c1C(F)(F)F)c1ccc(Cl)cc1
growth (%): 94.8
//
compound: Fc1ccc(-c2cn3c(nc4ccccc43)c(-c3ccccc3)n2)cc1
growth (%): 108
//
compound: CCSCC1CC(O)(c2ccccc2)CC(c2ccc(F)cc2)O1 (stereo not given)
growth (%): 15.2
//
compound: CN[C@@H](C)C(=O)N[C@H]1CCS[C@H]2CC(C)(C)[C@@H](C(=O)N[C@H]3c4ccccc4C[C@H]3OCC#CC#CCO[C@@H]3Cc4ccccc4[C@@H]3NC(=O)[C@H]3N4C(=O)[C@@H](NC(=O)[C@H](C)NC)CCS[C@H]4CC3(C)C)N2C1=O
growth (%): 121
//
compound: CCOC(=O)c1nc2c3ccccc3ccn2c1C(=O)OCC
growth (%): 76.9
//
compound: O=C1Nc2ccccc2/C1=C\c1c(-c2ccccc2)nc2ccccn12
growth (%): 53.1
